- Test system: Escherichia coli
- protocol details: Antibacterial activity against Escherichia coli ATCC 25922 after 24 hrs by MTT assay
- Format: functional
- test settings: ATCC 25922, 24 h
property measured: MIC (µg/mL)
Answers are plain numbers, in µg/mL.

Some solved entries appear below for comparison.
O=C(N/N=C/c1ccc(Cl)c([N+](=O)[O-])c1)c1ccc2c(c1)OCCCO2
3.13
O=C(N/N=C/c1ccc([N+](=O)[O-])cc1)c1ccc2c(c1)OCCCO2
25
O=C(N/N=C/c1cc([N+](=O)[O-])ccc1O)c1ccc2c(c1)OCCCO2
6.25

Batch: MIC for all items listed.
1. COc1cc(/C=N/NC(=O)c2ccc3c(c2)OCCCO3)cc(OC)c1OC
2. O=C(N/N=C/c1ccc2ccccc2c1)c1ccc2c(c1)OCCCO2
3. COc1ccc(/C=N/NC(=O)c2ccc3c(c2)OCCCO3)cc1

[1.56, 6.25, 25]

Record MIC per entry; entries follow.
1. O=C(N/N=C/c1ccc(F)c([N+](=O)[O-])c1)c1ccc2c(c1)OCCCO2
2. O=C(N/N=C/c1cc(Cl)cc(Cl)c1O)c1ccc2c(c1)OCCCO2
3. O=C(N/N=C/c1ccc(Cl)cc1Cl)c1ccc2c(c1)OCCCO2

1: 12.5; 2: 12.5; 3: 6.25

----------
- tested on: Beta-ketoacyl-[acyl-carrier-protein] synthase III (Escherichia coli K-12)
- Sequence (P0A6R0 whole entry): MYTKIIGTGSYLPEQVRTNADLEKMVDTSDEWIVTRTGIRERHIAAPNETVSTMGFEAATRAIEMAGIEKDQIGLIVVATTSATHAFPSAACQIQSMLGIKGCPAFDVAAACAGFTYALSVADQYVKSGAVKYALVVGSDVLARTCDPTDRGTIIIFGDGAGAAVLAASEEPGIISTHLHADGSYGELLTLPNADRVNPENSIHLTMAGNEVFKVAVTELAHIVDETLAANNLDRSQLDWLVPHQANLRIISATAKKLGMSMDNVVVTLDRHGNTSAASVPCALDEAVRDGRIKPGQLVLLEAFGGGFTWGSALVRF
- protocol details: Inhibition of Escherichia coli FabH expressed in Escherichia coli DH10B using holo-ACP/acetyl-CoA as substrate assessed as incorporation of [3H] signal in final product preincubated with holo-ACP for 1 hr followed by acetyl-CoA addition measured after 25 mins by liquid scintillation counting method
property measured: pIC50
Numbers only, as −log10 of the molar value.

Worked examples, 4 molecules total:
COc1ccc(/C=N/NC(=O)c2ccc3c(c2)OCCCO3)cc1OC
5.39
O=C(N/N=C/c1ccc(Cl)cc1Cl)c1ccc2c(c1)OCCCO2
5.37
O=C(N/N=C/c1ccc(Cl)c([N+](=O)[O-])c1)c1ccc2c(c1)OCCCO2
5.36
NC[C@H]1O[C@H](O[C@H]2[C@H](O)[C@@H](O[C@H]3O[C@H](CO)[C@@H](O)[C@H](N)[C@H]3O)[C@H](N)C[C@@H]2N)[C@H](N)[C@@H](O)[C@@H]1O [BEKANAMYCIN]
5.25

Could you now look at the following molecule, please?
GET /values?readout=pIC50&system=Beta-ketoacyl-[acyl-carrier-protein] synthase III (Escherichia coli K-12)&item= O=C(N/N=C/c1cc(Cl)ccc1O)c1ccc2c(c1)OCCCO2
4.88

----------
- System: Pseudomonas aeruginosa
- protocol details: Antibacterial activity against Pseudomonas aeruginosa ATCC 27853 after 24 hrs by MTT assay
- Type: functional
- test settings: ATCC 27853, 24 h
property measured: MIC (µg/mL)
Give bare numbers, in µg/mL.

Worked examples follow.
O=C(N/N=C/c1ccc2ccccc2c1)c1ccc2c(c1)OCCCO2
3.13
O=C(N/N=C/c1cc(Cl)ccc1O)c1ccc2c(c1)OCCCO2
25
O=C(N/N=C/C=C/c1ccccc1)c1ccc2c(c1)OCCCO2
25
O=C(N/N=C/c1ccccc1O)c1ccc2c(c1)OCCCO2
50
O=C(N/N=C/c1ccccc1)c1ccc2c(c1)OCCCO2
50

Given O=C(N/N=C/c1ccc(O)c([N+](=O)[O-])c1)c1ccc2c(c1)OCCCO2 , state its recorded MIC.
12.5
